# experimental_system: 5HT2A (Homo sapiens, UniProt P28223)
# Sequence (P28223 whole entry): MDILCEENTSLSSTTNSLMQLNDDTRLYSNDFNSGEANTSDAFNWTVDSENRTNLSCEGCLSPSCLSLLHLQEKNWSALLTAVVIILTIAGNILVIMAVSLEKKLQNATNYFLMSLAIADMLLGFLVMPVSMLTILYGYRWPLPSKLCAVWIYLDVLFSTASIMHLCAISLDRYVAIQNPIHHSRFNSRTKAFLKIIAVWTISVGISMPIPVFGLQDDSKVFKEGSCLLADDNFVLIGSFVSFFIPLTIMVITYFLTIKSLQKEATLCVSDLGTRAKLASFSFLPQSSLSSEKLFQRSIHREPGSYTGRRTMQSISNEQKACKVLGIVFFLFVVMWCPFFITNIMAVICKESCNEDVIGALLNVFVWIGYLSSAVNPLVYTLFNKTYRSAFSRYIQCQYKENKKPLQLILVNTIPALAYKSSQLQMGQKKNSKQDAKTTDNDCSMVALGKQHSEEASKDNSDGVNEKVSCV
# assay_comment: cell-based
experimental_readout: EC50

State its EC50 for this molecule: O=C(O)[C@H]1C2CCC(CC2)[C@@H]1Nc1nc(-c2n[nH]c3ncc(F)cc23)nc(C2CC2)c1F
> 12 µM

* * *

# assay_comment: in vivo
# stated_conditions: both, beagle, dog, po, 1 mg/kg
experimental_readout: Tmax (min)
Numbers only, in min.

State its Tmax for this compound: O=C(O)[C@H]1C2CCC(CC2)[C@@H]1Nc1nc(-c2n[nH]c3ncc(F)cc23)nc(C2CC2)c1F
27.5

* * *

# experimental_system: hERG potassium channel (Homo sapiens, UniProt Q12809)
pIC50: −log10 of the molar value.
experimental_readout: pIC50

State its pIC50 for this molecule: O=C(O)[C@H]1C2CCC(CC2)[C@@H]1Nc1nc(-c2n[nH]c3ncc(F)cc23)nc(C2CC2)c1F [ZSP1273]
< 4.40

* * *

# experimental_system: CB1 (Homo sapiens)
# Sequence (P21554 whole entry): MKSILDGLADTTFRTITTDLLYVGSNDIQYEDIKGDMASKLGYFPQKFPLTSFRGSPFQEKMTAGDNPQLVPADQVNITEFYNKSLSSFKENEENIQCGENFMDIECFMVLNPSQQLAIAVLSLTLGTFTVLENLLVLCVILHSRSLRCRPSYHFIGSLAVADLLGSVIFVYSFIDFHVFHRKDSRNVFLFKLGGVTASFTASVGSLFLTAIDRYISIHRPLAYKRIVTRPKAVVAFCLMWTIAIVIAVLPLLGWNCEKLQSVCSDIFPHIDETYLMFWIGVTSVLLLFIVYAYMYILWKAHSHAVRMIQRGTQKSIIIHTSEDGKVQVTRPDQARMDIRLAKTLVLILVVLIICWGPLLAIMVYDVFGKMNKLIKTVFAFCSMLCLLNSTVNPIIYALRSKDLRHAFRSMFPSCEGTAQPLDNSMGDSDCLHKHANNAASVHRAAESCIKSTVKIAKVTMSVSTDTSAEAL
# assay_comment: cell-based
pEC50: −log10 of the molar value.
experimental_readout: pEC50

State its pEC50 for this compound: O=C(O)[C@H]1C2CCC(CC2)[C@@H]1Nc1nc(-c2n[nH]c3ncc(F)cc23)nc(C2CC2)c1F [ZSP1273]
< 4.92

* * *

# experimental_system: D2 (Homo sapiens, UniProt P14416)
# Sequence (P14416 whole entry): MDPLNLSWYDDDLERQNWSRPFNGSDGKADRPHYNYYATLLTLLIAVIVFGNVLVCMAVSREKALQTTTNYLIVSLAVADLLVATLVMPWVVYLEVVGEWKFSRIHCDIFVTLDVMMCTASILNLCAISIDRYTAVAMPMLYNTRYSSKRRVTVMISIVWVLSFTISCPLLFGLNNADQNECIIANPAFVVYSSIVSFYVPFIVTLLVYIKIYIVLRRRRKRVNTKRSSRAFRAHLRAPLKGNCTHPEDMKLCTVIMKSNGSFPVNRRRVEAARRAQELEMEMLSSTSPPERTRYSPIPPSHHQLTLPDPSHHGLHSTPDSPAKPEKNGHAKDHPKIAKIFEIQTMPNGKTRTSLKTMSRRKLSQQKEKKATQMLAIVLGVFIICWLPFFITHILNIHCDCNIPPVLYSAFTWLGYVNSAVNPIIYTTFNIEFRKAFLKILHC
# assay_comment: cell-based
pIC50: −log10 of the molar value.
experimental_readout: pIC50

State its pIC50 for this molecule: O=C(O)[C@H]1C2CCC(CC2)[C@@H]1Nc1nc(-c2n[nH]c3ncc(F)cc23)nc(C2CC2)c1F
< 5.00

* * *

# experimental_system: DYRK3 (Homo sapiens, UniProt O43781)
# Sequence (O43781 1-588): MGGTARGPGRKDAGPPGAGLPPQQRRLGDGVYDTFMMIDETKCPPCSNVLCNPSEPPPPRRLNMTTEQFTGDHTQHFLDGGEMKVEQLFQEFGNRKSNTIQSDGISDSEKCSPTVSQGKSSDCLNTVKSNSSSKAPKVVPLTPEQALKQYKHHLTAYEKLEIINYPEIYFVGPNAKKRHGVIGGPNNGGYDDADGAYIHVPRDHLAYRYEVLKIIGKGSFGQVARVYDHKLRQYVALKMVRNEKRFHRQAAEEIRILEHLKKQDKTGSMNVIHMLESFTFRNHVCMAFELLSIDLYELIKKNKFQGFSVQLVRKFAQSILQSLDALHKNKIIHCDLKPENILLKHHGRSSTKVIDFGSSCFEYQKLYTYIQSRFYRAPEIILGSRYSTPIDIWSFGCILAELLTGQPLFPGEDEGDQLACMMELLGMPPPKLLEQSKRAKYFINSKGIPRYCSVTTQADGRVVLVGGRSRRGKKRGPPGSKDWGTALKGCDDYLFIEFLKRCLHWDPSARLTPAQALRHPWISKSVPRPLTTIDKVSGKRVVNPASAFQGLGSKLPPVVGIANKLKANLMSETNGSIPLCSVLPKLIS
Please provide measured IC50 for the entries that follow.

[
  {
    "compound": "O=C(O)[C@H]1C2CCC(CC2)[C@@H]1Nc1nc(-c2n[nH]c3ncc(F)cc23)nc(C2CC2)c1F",
    "IC50": "> 10 µM"
  }
]

Kindly consider the entry below.
State its IC50 for this compound: O=C(O)[C@H]1C2CCC(CC2)[C@@H]1Nc1nc(-c2c[nH]c3ncc(F)cc23)ncc1F [VX-787, reference compound]
> 10 µM

* * *

# experimental_system: op-kappa (Homo sapiens)
# Sequence (P41145 whole entry): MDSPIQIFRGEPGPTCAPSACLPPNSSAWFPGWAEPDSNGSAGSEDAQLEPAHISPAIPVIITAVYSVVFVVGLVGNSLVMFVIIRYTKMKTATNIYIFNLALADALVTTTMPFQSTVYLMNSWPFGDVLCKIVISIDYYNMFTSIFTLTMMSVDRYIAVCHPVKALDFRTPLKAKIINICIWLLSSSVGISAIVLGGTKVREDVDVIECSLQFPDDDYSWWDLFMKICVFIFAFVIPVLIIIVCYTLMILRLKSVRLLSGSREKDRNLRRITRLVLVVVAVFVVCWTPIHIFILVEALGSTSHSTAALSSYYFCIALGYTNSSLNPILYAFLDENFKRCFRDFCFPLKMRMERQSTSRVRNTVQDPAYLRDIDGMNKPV
# assay_comment: cell-based
experimental_readout: EC50

State its EC50 for this molecule: O=C(O)[C@H]1C2CCC(CC2)[C@@H]1Nc1nc(-c2n[nH]c3ncc(F)cc23)nc(C2CC2)c1F
> 12 µM

* * *

Test system MINK (Homo sapiens, UniProt Q8N4C8), IC50 listed for each of the compounds.

[
  {
    "compound": "O=C(O)[C@H]1C2CCC(CC2)[C@@H]1Nc1nc(-c2n[nH]c3ncc(F)cc23)nc(C2CC2)c1F [ZSP1273]",
    "experimental_readout": "IC50",
    "reading": "> 10 µM"
  }
]

Kindly consider the entry below.
// fetch IC50 for O=C(O)[C@H]1C2CCC(CC2)[C@@H]1Nc1nc(-c2c[nH]c3ncc(F)cc23)ncc1F [VX-787, reference compound] ; system: MINK (Homo sapiens, UniProt Q8N4C8)
Sequence (Q8N4C8 whole entry): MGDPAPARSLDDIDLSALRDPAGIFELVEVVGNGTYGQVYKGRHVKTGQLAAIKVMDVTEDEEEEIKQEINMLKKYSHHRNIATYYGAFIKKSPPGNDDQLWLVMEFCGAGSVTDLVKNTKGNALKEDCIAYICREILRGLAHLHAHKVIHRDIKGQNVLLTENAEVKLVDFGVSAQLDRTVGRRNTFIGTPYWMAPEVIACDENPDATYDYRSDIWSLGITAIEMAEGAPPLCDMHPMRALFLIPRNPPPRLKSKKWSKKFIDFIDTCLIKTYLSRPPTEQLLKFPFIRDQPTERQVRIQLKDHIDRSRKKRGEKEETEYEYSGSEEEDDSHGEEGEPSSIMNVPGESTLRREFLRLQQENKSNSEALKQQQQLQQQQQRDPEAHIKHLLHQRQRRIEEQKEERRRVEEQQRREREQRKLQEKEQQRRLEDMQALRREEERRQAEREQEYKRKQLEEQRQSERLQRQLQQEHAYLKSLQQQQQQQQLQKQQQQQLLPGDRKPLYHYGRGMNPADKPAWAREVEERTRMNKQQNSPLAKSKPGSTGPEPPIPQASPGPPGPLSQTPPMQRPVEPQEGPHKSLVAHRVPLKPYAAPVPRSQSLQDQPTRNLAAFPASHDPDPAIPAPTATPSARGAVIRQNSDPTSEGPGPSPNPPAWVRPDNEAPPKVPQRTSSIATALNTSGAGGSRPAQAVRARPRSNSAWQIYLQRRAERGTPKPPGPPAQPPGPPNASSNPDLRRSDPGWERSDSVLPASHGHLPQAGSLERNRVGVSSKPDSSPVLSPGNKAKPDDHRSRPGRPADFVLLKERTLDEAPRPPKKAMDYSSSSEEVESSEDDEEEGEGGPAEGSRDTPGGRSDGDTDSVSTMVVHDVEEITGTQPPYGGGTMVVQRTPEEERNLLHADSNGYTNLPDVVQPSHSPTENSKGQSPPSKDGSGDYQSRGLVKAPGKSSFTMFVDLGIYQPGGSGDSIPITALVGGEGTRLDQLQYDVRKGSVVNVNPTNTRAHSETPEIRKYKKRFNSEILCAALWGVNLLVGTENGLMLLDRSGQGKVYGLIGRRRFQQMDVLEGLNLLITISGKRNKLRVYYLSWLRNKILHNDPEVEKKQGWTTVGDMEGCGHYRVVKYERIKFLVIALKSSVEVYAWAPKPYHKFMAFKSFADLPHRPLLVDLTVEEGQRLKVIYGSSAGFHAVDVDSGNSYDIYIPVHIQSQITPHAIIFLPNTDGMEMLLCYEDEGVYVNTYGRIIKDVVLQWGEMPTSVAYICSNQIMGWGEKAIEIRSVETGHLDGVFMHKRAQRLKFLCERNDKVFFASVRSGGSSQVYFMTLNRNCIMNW
> 3.33 µM

* * *

# assay_comment: in vitro
# stated_conditions: human
experimental_readout: CC50

State its CC50 for this molecule: C=C1[C@H](CO)[C@@H](O)C[C@@H]1n1cnc2c(=O)[nH]c(N)nc21 [Entecavir, reference compound]
> 20 nM

* * *

# experimental_system: UniProt:P32238
# Sequence (P32238 whole entry): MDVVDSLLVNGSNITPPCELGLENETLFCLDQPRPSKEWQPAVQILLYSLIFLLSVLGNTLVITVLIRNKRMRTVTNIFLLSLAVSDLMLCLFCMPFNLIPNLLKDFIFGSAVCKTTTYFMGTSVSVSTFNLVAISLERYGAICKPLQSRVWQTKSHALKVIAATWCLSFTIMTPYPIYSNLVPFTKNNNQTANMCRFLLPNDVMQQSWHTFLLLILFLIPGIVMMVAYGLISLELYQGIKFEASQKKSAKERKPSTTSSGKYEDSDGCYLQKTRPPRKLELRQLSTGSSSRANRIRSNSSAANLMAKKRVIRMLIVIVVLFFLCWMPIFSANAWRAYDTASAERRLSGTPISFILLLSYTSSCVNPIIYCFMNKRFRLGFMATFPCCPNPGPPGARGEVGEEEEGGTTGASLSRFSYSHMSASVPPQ
# assay_comment: cell-based
experimental_readout: EC50

State its EC50 for this molecule: O=C(O)[C@H]1C2CCC(CC2)[C@@H]1Nc1nc(-c2n[nH]c3ncc(F)cc23)nc(C2CC2)c1F
> 12 µM

* * *

# experimental_system: 5HT1A (Homo sapiens, UniProt P08908)
# Sequence (P08908 whole entry): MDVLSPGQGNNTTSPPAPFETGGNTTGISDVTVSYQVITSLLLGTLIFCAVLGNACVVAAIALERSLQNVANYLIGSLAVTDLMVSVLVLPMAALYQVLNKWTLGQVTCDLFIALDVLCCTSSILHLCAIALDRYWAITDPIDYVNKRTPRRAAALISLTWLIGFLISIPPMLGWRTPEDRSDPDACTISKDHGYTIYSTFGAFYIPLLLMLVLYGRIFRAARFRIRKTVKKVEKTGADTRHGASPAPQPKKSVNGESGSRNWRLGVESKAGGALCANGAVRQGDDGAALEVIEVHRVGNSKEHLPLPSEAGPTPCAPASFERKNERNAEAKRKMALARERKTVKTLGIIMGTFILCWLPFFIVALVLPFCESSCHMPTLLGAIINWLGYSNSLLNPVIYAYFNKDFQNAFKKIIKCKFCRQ
pIC50: −log10 of the molar value.
experimental_readout: pIC50

State its pIC50 for this compound: O=C(O)[C@H]1C2CCC(CC2)[C@@H]1Nc1nc(-c2n[nH]c3ncc(F)cc23)nc(C2CC2)c1F
< 5.00

* * *

# experimental_system: D2 (Homo sapiens)
# assay_comment: cell-based
pEC50: −log10 of the molar value.
experimental_readout: pEC50

State its pEC50 for this compound: O=C(O)[C@H]1C2CCC(CC2)[C@@H]1Nc1nc(-c2n[nH]c3ncc(F)cc23)nc(C2CC2)c1F
< 4.92

* * *

# experimental_system: M3 (Homo sapiens)
# Sequence (P20309 whole entry): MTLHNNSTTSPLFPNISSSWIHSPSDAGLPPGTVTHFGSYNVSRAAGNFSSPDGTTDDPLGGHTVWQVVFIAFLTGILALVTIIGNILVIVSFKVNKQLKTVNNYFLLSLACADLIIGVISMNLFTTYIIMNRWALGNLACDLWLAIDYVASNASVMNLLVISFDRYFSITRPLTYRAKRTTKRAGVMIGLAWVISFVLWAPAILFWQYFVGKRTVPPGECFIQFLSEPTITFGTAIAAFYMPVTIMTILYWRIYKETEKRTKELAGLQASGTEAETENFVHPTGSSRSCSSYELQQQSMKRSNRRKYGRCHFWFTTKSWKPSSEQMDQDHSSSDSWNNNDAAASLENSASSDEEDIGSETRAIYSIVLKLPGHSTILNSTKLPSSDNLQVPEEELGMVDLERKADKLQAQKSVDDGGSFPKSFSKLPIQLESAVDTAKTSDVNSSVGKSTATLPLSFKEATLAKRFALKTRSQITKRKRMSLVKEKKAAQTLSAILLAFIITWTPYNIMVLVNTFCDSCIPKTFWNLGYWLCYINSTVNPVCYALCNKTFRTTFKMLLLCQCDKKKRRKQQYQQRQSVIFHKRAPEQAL
# assay_comment: cell-based
experimental_readout: pEC50
One number for each entry, as −log10 of the molar value.

State its pEC50 for this molecule: C#CCOC(=O)C1=CCCN(C)C1 [Arecaidine propargyl ester, reference compound]
9.51

* * *

Please provide measured CC50 for the entries that follow.
# assay_comment: in vitro

[
  {
    "compound": "O=C(O)[C@H]1C2CCC(CC2)[C@@H]1Nc1nc(-c2n[nH]c3ncc(F)cc23)nc(C2CC2)c1F [ZSP1273]",
    "CC50": "> 10 µM"
  }
]

Kindly consider the entry below.
State its CC50 for this compound: COC(=O)N[C@H](C(=O)N1CCC[C@H]1c1nc(-c2ccc(-c3ccc(-c4c[nH]c([C@@H]5CCCN5C(=O)[C@@H](NC(=O)OC)C(C)C)n4)cc3)cc2)c[nH]1)C(C)C [BMS-790052, reference compound]
> 0.003 µM

* * *

Please provide measured IC50 for the entries that follow.
# experimental_system: influenza virus polymerase (PB1, PB2, NP, PA from A/California/04/2009 (H1N1) pdm09) (Influenza A virus, UniProt C3W5R8+C3W5R9)
# Assay type: cell-based
# stated_conditions: read-out: IC50, Mean ± SEM
I'd appreciate it if you included the unit after the number.

Value sought for every listed molecule: IC50.
1. O=C(O)[C@H]1C2CCC(CC2)[C@@H]1Nc1nc(-c2c[nH]c3ncc(F)cc23)ncc1F [VX-787, reference compound]
2. O=C(O)[C@H]1C2CCC(CC2)[C@@H]1Nc1nc(-c2n[nH]c3ncc(F)cc23)nc(C2CC2)c1F [ZSP1273]

1.45 nM
0.562 nM

* * *

# assay_comment: in vitro
# stated_conditions: dog, CC50 (mean ± SD)
Please provide measured CC50 for the entries that follow.
Numbers only, in µM.

[
  {
    "molecule": "O=C(O)[C@H]1C2CCC(CC2)[C@@H]1Nc1nc(-c2c[nH]c3ncc(F)cc23)ncc1F [VX-787, reference compound]",
    "CC50 / µM": 21.1
  }
]

Kindly consider the entry below.
State its CC50 for this molecule: O=C(O)[C@H]1C2CCC(CC2)[C@@H]1Nc1nc(-c2n[nH]c3ncc(F)cc23)nc(C2CC2)c1F [ZSP1273]
1.63

* * *

# assay_comment: Cytotoxicity in MDCK cells without viral infection
# stated_conditions: dog
experimental_readout: CC50 (µM)
Answers are plain numbers, in µM.

State its CC50 for this compound: O=C1c2c(O)c(=O)ccn2N([C@@H]2c3ccccc3SCc3c2ccc(F)c3F)[C@@H]2COCCN12 [Baloxavir]
14.4

* * *

# experimental_system: op-delta (Homo sapiens)
# Sequence (P41143 whole entry): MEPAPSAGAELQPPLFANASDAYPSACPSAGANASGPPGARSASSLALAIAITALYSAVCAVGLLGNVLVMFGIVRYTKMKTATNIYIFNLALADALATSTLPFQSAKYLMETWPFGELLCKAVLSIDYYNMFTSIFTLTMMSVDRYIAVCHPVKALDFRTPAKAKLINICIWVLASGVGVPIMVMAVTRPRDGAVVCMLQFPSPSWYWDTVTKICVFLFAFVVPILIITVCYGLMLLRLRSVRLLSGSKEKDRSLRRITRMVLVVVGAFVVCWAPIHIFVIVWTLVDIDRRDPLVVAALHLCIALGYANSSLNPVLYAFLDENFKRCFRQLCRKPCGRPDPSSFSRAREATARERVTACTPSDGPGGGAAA
# assay_comment: cell-based
pEC50: −log10 of the molar value.
experimental_readout: pEC50

// fetch pEC50 for O=C(O)[C@H]1C2CCC(CC2)[C@@H]1Nc1nc(-c2n[nH]c3ncc(F)cc23)nc(C2CC2)c1F ; system: op-delta (Homo sapiens)
< 4.92

* * *

Please provide measured IC50 for the entries that follow.
# Tested on: A/Anhui/01/2013 (H7N9)
# assay_comment: microbe, parasite or virus in culture
# Type: cell-based, avian influenza virus
# stated_conditions: Influenza A virus, H7N9, MDCK, read-out: IC50 (mean ± SD)
I'd appreciate it if you included the unit after the number.

// below: answered compounds
[
  {
    "compound": "CCOC(=O)C1=C[C@@H](OC(CC)CC)[C@H](NC(C)=O)[C@@H](N)C1",
    "IC50": "175000 nM"
  },
  {
    "compound": "O=C(O)[C@H]1C2CCC(CC2)[C@@H]1Nc1nc(-c2n[nH]c3ncc(F)cc23)nc(C2CC2)c1F",
    "IC50": "0.627 nM"
  }
]

Kindly consider the entry below.
State its IC50 for this compound: O=C(O)[C@H]1C2CCC(CC2)[C@@H]1Nc1nc(-c2c[nH]c3ncc(F)cc23)ncc1F [VX-787, reference compound]
0.834 nM
